Data provenance: paper PMC10786891

Attribute: pKd
tested target: T1, EsCas13d, nuclease-dead (Eubacterium siraeum, UniProt B0MS50, R295A;H300A;R849A;H854A)
T1 sequence: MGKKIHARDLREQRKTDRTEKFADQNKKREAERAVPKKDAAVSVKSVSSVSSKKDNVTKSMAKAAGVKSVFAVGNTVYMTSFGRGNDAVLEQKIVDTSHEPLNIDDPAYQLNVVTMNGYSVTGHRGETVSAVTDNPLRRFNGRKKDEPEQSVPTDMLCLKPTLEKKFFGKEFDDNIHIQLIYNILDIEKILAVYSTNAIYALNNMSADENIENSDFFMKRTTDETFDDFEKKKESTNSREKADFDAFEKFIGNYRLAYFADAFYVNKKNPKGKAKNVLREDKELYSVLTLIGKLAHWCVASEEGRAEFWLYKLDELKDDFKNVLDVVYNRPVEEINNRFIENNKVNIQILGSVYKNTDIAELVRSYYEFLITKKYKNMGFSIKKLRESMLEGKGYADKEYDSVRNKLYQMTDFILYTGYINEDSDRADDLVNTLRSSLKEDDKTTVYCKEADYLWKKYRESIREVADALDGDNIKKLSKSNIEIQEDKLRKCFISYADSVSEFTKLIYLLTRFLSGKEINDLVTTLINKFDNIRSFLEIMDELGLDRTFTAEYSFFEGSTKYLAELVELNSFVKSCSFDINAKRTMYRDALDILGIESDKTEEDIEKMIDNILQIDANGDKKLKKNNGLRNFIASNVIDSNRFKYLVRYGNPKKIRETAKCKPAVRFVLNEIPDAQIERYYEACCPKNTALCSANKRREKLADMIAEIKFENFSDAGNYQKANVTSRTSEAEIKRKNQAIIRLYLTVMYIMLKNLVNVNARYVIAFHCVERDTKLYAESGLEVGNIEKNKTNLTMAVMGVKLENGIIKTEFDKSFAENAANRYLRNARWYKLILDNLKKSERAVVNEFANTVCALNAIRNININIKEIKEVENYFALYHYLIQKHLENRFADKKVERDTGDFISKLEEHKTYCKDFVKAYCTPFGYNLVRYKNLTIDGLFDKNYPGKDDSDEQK
test: crRNA (strand 1, pre-loaded); Mg2+; 40 mM Tris-HCl pH 7.5, 150 mM NaCl, 6 mM MgCl2, 1 mM DTT, 0.1% Tween-20, 0.2 mg/ml BSA; 25 C; 10 min per concentration, then washed
study conditions: tags: His6-TwinStrep-SUMO cleaved; N-terminal SNAP kept (SNAP-Surface 488); label: 3' end held by stalled T7 RNA polymerase
pKd field: float, defined as -log10 of concentration (mol/L).

Example entries begin here.
>  <binder>
target 1 del5,del8 (mixed) RNA 1: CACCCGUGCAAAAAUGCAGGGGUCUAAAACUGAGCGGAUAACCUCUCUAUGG RNA 2: GGGAAUGGAUCCACAUCUACGAAUUCGUACCAUAGAGAGGUUACCCUCACCGAGAUCGGAAGAGCACACGU

>  <pKd>
7.74

$$$$
>  <binder>
target 2 MT 5'PFS AUU 3'PFS ACA (mixed) RNA 1: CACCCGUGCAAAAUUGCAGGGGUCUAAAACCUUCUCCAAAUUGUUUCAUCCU RNA 2: GGGAAUGGAUCCACAUCUACGAAUUCAUUAGGAUGAAACAAUUUGGAGAAGACAAGAUCGGAAGAGCACACGU

>  <pKd>
8.02

$$$$
>  <binder>
target 3 insU 3' of 22,insA 3' of 6 (mixed) RNA 1: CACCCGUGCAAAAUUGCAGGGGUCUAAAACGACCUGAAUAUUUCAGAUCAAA RNA 2: GGGAAUGGAUCCACAUCUACGAAUUCGUUUUUUGAUCUGAAAUAUUCAAGGUCUGCAGAUCGGAAGAGCACACGU

>  <pKd>
8.14

$$$$
>  <binder>
target 1 C6A,A9G (mixed) RNA 1: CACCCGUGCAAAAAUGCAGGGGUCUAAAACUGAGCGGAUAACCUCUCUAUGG RNA 2: GGGAAUGGAUCCACAUCUACGAAUUCGUACCAUAGAGAGGUUGUCAGCUCACCGAGAUCGGAAGAGCACACGU

>  <pKd>
7.94

$$$$

Incoming: For the binder target 1 insC 3' of 19,insA 3' of 10 (mixed) RNA 1: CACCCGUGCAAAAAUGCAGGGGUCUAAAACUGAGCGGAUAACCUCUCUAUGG RNA 2: GGGAAUGGAUCCACAUCUACGAAUUCGUACCAUCAGAGAGGUUAAUCCGCUCACCGAGAUCGGAAGAGCACACGU , give its reported pKd.
Outgoing: 7.24

Incoming: Give me measured pKd, please, for this binder: target 1 insG 3' of 10,insA 3' of 3 (mixed) RNA 1: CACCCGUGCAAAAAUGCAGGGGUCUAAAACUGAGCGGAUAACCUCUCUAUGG RNA 2: GGGAAUGGAUCCACAUCUACGAAUUCGUACCAUAGAGAGGUUGAUCCGCUACACCGAGAUCGGAAGAGCACACGU
Outgoing: 7.35

Incoming: Consider the binder target 1 insU 3' of 20,insC 3' of 1 (mixed) RNA 1: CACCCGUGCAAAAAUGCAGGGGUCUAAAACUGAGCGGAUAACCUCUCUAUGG RNA 2: GGGAAUGGAUCCACAUCUACGAAUUCGUACCAUUAGAGAGGUUAUCCGCUCACCCGAGAUCGGAAGAGCACACGU and give its recorded pKd.
Outgoing: 8.00
